target: T1, HLA-A*02:01 (peptide-receptive MHC class I monomer after UV cleavage of the UV-sensitive ligand) (human); assay: UV ligand-exchange ELISA; exchange yield grade (+ >=10%, ++ >=20%, +++ >=50%, ++++ >=75%)
T1 construct: MHC monomers loaded by UV-ligand exchange and captured on streptavidin plates
readoutLabel: peptide exchange yield

Consider the following illustrative entries.
RLADLKVSI [RLADLKVSI (SEQ ID NO: 162)]	≥ 75%
SIFDAVLKGV [SIFDAVLKGV (SEQ ID NO: 163)]	≥ 75%
QLAPFLPQL [QLAPFLPQL (SEQ ID NO: 58)]	50 to 75%
SLFDGFFLTA [SLFDGFFLTA (SEQ ID NO: 236)]	≥ 75%
ILSEKEYKL [ILSEKEYKL (SEQ ID NO: 150)]	50 to 75%
IASPVIAAV [IASPVIAAV (SEQ ID NO: 290)]	50 to 75%
FLLVGTQIDL [FLLVGTQIDL (SEQ ID NO: 10)]	50 to 75%
AVLGFSFRL [AVLGFSFRL (SEQ ID NO: 24)]	50 to 75%
KVVSNLPAI [KVVSNLPAI (SEQ ID NO: 216)]	20 to 50%
QIAAFLFTV [QIAAFLFTV (SEQ ID NO: 68)]	≥ 75%

What value of peptide exchange yield has been reported for the following binder? ILSTLDVEL [ILSTLDVEL (SEQ ID NO: 30)] 50 to 75%

Entry LLSGQLPTI [LLSGQLPTI (SEQ ID NO: 1)] please 50 to 75%

Entry RLHREVAQV [RLHREVAQV (SEQ ID NO: 59)] please 50 to 75%

Entry GLAMVEAISYV [GLAMVEAISYV (SEQ ID NO: 293)] please ≥ 75%

Entry GLSDISAQV [GLSDISAQV (SEQ ID NO: 191)] please 50 to 75%

Entry VLLESLVEI [VLLESLVEI (SEQ ID NO: 249)] please ≥ 75%

Entry VQAVSIPEV [VQAVSIPEV (SEQ ID NO: 107)] please 50 to 75%
